Reference for the values: patent US10882856B2

molecular target: IDO1 (Homo sapiens); assay: IDO1 enzymatic assay; format: biochemical; design: His tag (N); made in house; host or cells: E. coli; conditions: read-out: Enzyme IC50 IDO1
Measurement Name: pIC50
Here pIC50 is given on a logarithmic scale as minus log10 of the concentration in mol/L.

Notebook: pull reported pIC50 for IDO1 (Homo sapiens), entry O[C@H](c1c(C2CC2)ccc2cncn12)[C@H]1CC[C@H](c2ccc(Cl)c(F)c2)CC1 (single isomer, unassigned) [Example D128a]
7.72

Notebook: pull reported pIC50 for IDO1 (Homo sapiens), entry O[C@@H](c1c(C2CC2)ccn2cncc12)[C@H]1CC[C@H](c2ccc(F)c(Cl)c2)CC1 (single isomer, unassigned) [Example C132b]
5.60

Notebook: pull reported pIC50 for IDO1 (Homo sapiens), entry OC(c1c(C2CC2)ccn2cncc12)C1CCC(c2ccc3ccccc3c2)CC1 (stereo not shown) [Example C122]
7.13

Notebook: pull reported pIC50 for IDO1 (Homo sapiens), entry Cc1cccc(C2CCC(C(O)c3c(C4CC4)ccn4cncc34)CC2)c1 (racemic) [Example C111]
7.09

Notebook: pull reported pIC50 for IDO1 (Homo sapiens), entry COc1cccc([C@H]2CC[C@H]([C@@H](O)c3c(C(C)C)ccc4cncn34)CC2)c1 (single isomer, unassigned) [Example D169b]
5.12

Notebook: pull reported pIC50 for IDO1 (Homo sapiens), entry Oc1ccc(C2CCC(C(O)c3c(C4CC4)ccc4cncn34)CC2)c2ccccc12 (stereo not shown) [Example D138]
7.21

----------
Exercise: for every item that follows, state its recorded pIC50.
molecular target: IDO1 (Homo sapiens, UniProt P14902); assay: IDO1 enzymatic assay; assay type: biochemical; parameters: His tag (N); made in house; host or cells: E. coli; details: read-out: Enzyme IC50 IDO1
Sequence (P14902 whole entry): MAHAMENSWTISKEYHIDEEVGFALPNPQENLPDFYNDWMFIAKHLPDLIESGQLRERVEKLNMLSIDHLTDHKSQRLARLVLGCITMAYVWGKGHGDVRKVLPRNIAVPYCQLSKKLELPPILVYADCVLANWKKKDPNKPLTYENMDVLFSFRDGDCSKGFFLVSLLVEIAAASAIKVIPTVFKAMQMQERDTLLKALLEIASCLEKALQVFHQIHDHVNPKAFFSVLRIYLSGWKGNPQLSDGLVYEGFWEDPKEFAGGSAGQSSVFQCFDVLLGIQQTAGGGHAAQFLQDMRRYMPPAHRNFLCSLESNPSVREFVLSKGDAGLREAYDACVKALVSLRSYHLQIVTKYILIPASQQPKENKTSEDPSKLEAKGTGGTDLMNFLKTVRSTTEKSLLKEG
Here pIC50 is given on a logarithmic scale as minus log10 of the concentration in mol/L.

Using the record for NC(=O)c1ccc([C@H]2CC[C@H]([C@H](O)c3c(C4CC4)ccn4cncc34)CC2)cc1 [Example C124] , report its pIC50.
7.25

Using the record for CN(C)C(=O)c1ccc(C2CCC(C(O)c3c(C4CC4)ccc4cncn34)CC2)cc1 (centres unmarked) [Example D125] , report its pIC50.
7.62

Using the record for O=C(O)c1ccc([C@H]2CC[C@H]([C@@H](O)c3c(C4CC4)ccc4cncn34)CC2)cc1 (single isomer, unassigned) [Example D111b] , report its pIC50.
5.92

Using the record for OC(c1c(C2CC2)ccn2cncc12)C1CCN(c2ccc(F)c3cccnc23)CC1 (centres unmarked) [Example C155] , report its pIC50.
7.21

Using the record for OC(c1c(C2CC2)ccc2cncn12)[C@H]1CC[C@H](c2ccc(Cl)cc2F)CC1 (single isomer, unassigned) [Example D131a] , report its pIC50.
7.49

Using the record for O[C@@H](c1c(C2CC2)ccn2cncc12)[C@H]1CC[C@H](c2cccc3ccccc32)CC1 (single isomer, unassigned) [Example C121b] , report its pIC50.
5.82

Using the record for OC(c1c(C2CC2)ccc2cncn12)[C@H]1CC[C@H](c2ccc3ccsc3c2)CC1 (single isomer, unassigned) [Example D134b] , report its pIC50.
5.57

Using the record for COc1ccc(C2CCC(C(O)c3c(C4CC4)ccc4cncn34)CC2)c(F)c1 (centres unmarked) [Example D146] , report its pIC50.
7.55

Using the record for OC(c1c(C2CC2)ccn2cncc12)C1CCN(c2ccc(F)c3cccnc23)CC1 (single isomer, unassigned) [Example C155b] , report its pIC50.
7.59

Using the record for N#Cc1ccc(C2CCC(C(O)c3c(C4CC4)ccn4cncc34)CC2)cc1 (racemic) [Example C106] , report its pIC50.
7.30

Using the record for OC(c1c(C2CC2)ccn2cncc12)C1CCN(c2ccccc2)CC1 (single isomer, unassigned) [Example C136a] , report its pIC50.
7.68

Using the record for OC(c1c(C2CC2)ccc2cncn12)C1CCC(c2ccc(F)c3ncccc23)CC1 (centres unmarked) [Example D163] , report its pIC50.
7.40

----------
target: IDO1 (Homo sapiens, UniProt P14902); experiment: Hela cell-based IDO1 assay; conditions: Hela cells
pEC50: −log10 of the molar value.
Assign satisfied to entries whose pEC50 meets or exceeds 7; assign not satisfied to the rest.

Could you verify whether the entry O[C@H](c1c(C2CC2)ccc2cncn12)[C@H]1CC[C@H](c2ccc(F)c3ccccc32)CC1 (single isomer, unassigned) [Example D137a] shows pEC50 of no less than 7?
satisfied

Could you verify whether the entry O[C@@H](c1c(C2CC2)ccc2cncn12)[C@H]1CC[C@H](c2cccc3ncccc32)CC1 (single isomer, unassigned) [Example D141b] shows pEC50 of no less than 7?
not satisfied

Could you verify whether the entry OC(c1c(C2CC2)ccc2cncn12)[C@H]1CC[C@H](c2ccc(F)cc2Cl)CC1 (single isomer, unassigned) [Example D130a] shows pEC50 of no less than 7?
not satisfied

----------
target: IDO1 (Homo sapiens); assay: Hela cell-based IDO1 assay; conditions: Hela cells
pEC50: −log10 of the molar value. Structures can show the parent of a compound that is named as a salt.
Assign 1 to entries whose pEC50 meets or exceeds 7; assign -1 to the rest.

Could you verify whether the entry COc1ccc([C@H]2CC[C@H](C(O)c3c(C4CC4)ccc4cncn34)CC2)cc1Cl (single isomer, unassigned) [Example D148b, hydrochloride] shows pEC50 of no less than 7?
-1

Could you verify whether the entry CC(C)c1ccc2cncn2c1C(O)C1CCC(c2cccc(Cl)c2)CC1 (centres unmarked) shows pEC50 of no less than 7?
1

Could you verify whether the entry O[C@@H](c1c(C2CC2)ccc2cncn12)[C@H]1CC[C@H](c2ccc(F)c(F)c2)CC1 (single isomer, unassigned) [Example D126b] shows pEC50 of no less than 7?
-1

Could you verify whether the entry O=C(O)c1ccc(C2CCC(C(O)c3c(C4CC4)ccc4cncn34)CC2)cc1 (centres unmarked) shows pEC50 of no less than 7?
-1

Could you verify whether the entry O[C@H](c1c(C2CC2)ccn2cncc12)[C@H]1CC[C@H](c2ccc(C(F)(F)F)cc2)CC1 (single isomer, unassigned) [Example C115a] shows pEC50 of no less than 7?
-1

Could you verify whether the entry O[C@@H](c1c(C2CC2)ccc2cncn12)C1CCN(c2ccccc2)CC1 (single isomer, unassigned) [Example D170b] shows pEC50 of no less than 7?
-1

Could you verify whether the entry O[C@H](c1c(C2CC2)ccn2cncc12)[C@H]1CC[C@H](c2ccc(Cl)cc2)CC1 (single isomer, unassigned) [Example C102a] shows pEC50 of no less than 7?
-1

Could you verify whether the entry OC(c1c(C2CC2)ccn2cncc12)C1CCN(c2ccccc2)CC1 (single isomer, unassigned) [Example C136a] shows pEC50 of no less than 7?
1

Could you verify whether the entry CC(=O)COc1ccc([C@H]2CC[C@H]([C@H](O)c3c(C4CC4)ccc4cncn34)CC2)cc1 shows pEC50 of no less than 7?
1

Could you verify whether the entry OC(c1c(C2CC2)ccn2cncc12)C1CCC(c2ccc(OC3CCCC3)cc2)CC1 (centres unmarked) shows pEC50 of no less than 7?
-1

Could you verify whether the entry OC(c1c(C2CC2)ccn2cncc12)C1CCN(c2ccccc2)CC1 (centres unmarked) [Example C136] shows pEC50 of no less than 7?
1

Could you verify whether the entry OC(c1c(C2CC2)ccn2cncc12)C1CCC(c2cccc(Cl)c2)CC1 (centres unmarked) shows pEC50 of no less than 7?
-1

Could you verify whether the entry Cc1cccc(C2CCC(C(O)c3c(C4CC4)ccn4cncc34)CC2)c1 (racemic) shows pEC50 of no less than 7?
-1

Could you verify whether the entry Oc1ccc([C@H]2CC[C@H](C(O)c3c(C4CC4)ccn4cncc34)CC2)cc1 (single isomer, unassigned) [Example C104a] shows pEC50 of no less than 7?
1

Could you verify whether the entry O[C@@H](c1c(C2CC2)ccc2cncn12)[C@H]1CC[C@H](c2ccc3ncccc3c2)CC1 (single isomer, unassigned) [Example D157b] shows pEC50 of no less than 7?
-1

Could you verify whether the entry OC(c1c(C2CC2)ccc2cncn12)C1CCC(c2ccc(Cl)cc2F)CC1 (centres unmarked) shows pEC50 of no less than 7?
-1

----------
target: IDO1 (Homo sapiens); test: IDO1 enzymatic assay; type: biochemical; design: His tag (N); made in house; host or cells: E. coli; details: read-out: Enzyme IC50 IDO1
IC50 strictly under 30 nM means satisfied; at 30 nM or over means not satisfied.

hey, is IC50 for N#Cc1ccc([C@H]2CC[C@H]([C@@H](O)c3c(C4CC4)ccc4cncn34)CC2)cc1 (single isomer, unassigned) [Example D110b] lower than 30 nM or not?
not satisfied

hey, is IC50 for OC(c1c(C2CC2)ccc2cncn12)C1CCC(c2ccc(OC3CCOCC3)cc2)CC1 (stereo not shown) lower than 30 nM or not?
not satisfied

hey, is IC50 for OC(c1c(C2CC2)ccc2cncn12)C1CCN(c2ccc(F)cc2)CC1 (stereo not shown) lower than 30 nM or not?
satisfied

hey, is IC50 for OC(c1c(C2CC2)ccc2cncn12)C1CCC(c2cccc3ncccc23)CC1 (stereo not shown) lower than 30 nM or not?
satisfied

hey, is IC50 for OC(c1c(C2CC2)ccn2cncc12)C1CCC(c2cccc3ccccc23)CC1 (stereo not shown) lower than 30 nM or not?
not satisfied

hey, is IC50 for OC(c1c(C2CC2)ccc2cncn12)C1CCC(c2cccc(F)c2F)CC1 (stereo not shown) lower than 30 nM or not?
not satisfied

hey, is IC50 for OC(c1c(C2CC2)ccc2cncn12)C1CCC(c2ccc3cccnc3c2)CC1 (stereo not shown) lower than 30 nM or not?
not satisfied

hey, is IC50 for O[C@H](c1c(C2CC2)ccc2cncn12)[C@H]1CC[C@H](c2cc(F)cc(F)c2)CC1 (single isomer, unassigned) [Example D144a] lower than 30 nM or not?
satisfied

hey, is IC50 for OC(c1c(C2CC2)ccc2cncn12)C1CCC(c2ccc(Br)cc2)CC1 (stereo not shown) lower than 30 nM or not?
not satisfied

hey, is IC50 for OC(c1c(C2CC2)ccc2cncn12)[C@H]1CC[C@@H](c2ccc(Cl)cc2)CC1 (single isomer, unassigned) [Example D103d] lower than 30 nM or not?
not satisfied

hey, is IC50 for OC(c1c(C2CC2)ccc2cncn12)C1CCC(c2ccc(OC(F)(F)F)cc2)CC1 (stereo not shown) lower than 30 nM or not?
not satisfied

hey, is IC50 for OC(c1c(C2CC2)ccn2cncc12)C1CCN(C2CC2)CC1 (stereo not shown) lower than 30 nM or not?
not satisfied

hey, is IC50 for OC(c1c(C2CC2)ccc2cncn12)[C@H]1CC[C@H](c2ccc(C(F)(F)F)nc2)CC1 (single isomer, unassigned) [Example D107b] lower than 30 nM or not?
not satisfied

hey, is IC50 for O[C@H](c1c(C2CC2)ccc2cncn12)[C@H]1CC[C@H](c2ccc(F)cc2F)CC1 (single isomer, unassigned) [Example D127a] lower than 30 nM or not?
satisfied

hey, is IC50 for NS(=O)(=O)Nc1ccc([C@H]2CC[C@H]([C@H](O)c3c(C4CC4)ccc4cncn34)CC2)cc1 lower than 30 nM or not?
satisfied

hey, is IC50 for COc1cccc([C@H]2CC[C@H]([C@H](O)c3c(C(C)C)ccc4cncn34)CC2)c1 (single isomer, unassigned) [Example D169a] lower than 30 nM or not?
satisfied

hey, is IC50 for COc1ccc(C2CCC(C(O)c3c(C4CC4)ccc4cncn34)CC2)c(Cl)c1 (stereo not shown) lower than 30 nM or not?
not satisfied

hey, is IC50 for O[C@@H](c1c(C2CC2)ccc2cncn12)C1CCN(c2cccc(F)c2)CC1 [Example D172b] lower than 30 nM or not?
not satisfied

hey, is IC50 for O[C@@H](c1c(C2CC2)ccc2cncn12)C1CCN(c2ccc(F)cc2)CC1 (single isomer, unassigned) [Example D171b] lower than 30 nM or not?
not satisfied

hey, is IC50 for O[C@@H](c1c(C2CC2)ccc2cncn12)[C@H]1CC[C@H](c2ccc(OC(F)(F)F)cc2)CC1 (single isomer, unassigned) [Example D105b] lower than 30 nM or not?
not satisfied

hey, is IC50 for OC(c1c(C2CC2)ccn2cncc12)C1CCN(c2ccc(F)c3ncccc23)CC1 (stereo not shown) [Example C149] lower than 30 nM or not?
not satisfied

hey, is IC50 for Cn1cc(-c2ccc(N3CCC(C(O)c4c(C5CC5)ccn5cncc45)CC3)cc2)cn1 (stereo not shown) lower than 30 nM or not?
satisfied

hey, is IC50 for OC(c1c(C2CC2)ccn2cncc12)C1CCN(c2cccc(F)c2)CC1 (stereo not shown) lower than 30 nM or not?
not satisfied

hey, is IC50 for O[C@H](c1c(C2CC2)ccc2cncn12)[C@H]1CC[C@H](c2ccc(OC(F)(F)F)cc2)CC1 (single isomer, unassigned) [Example D105a] lower than 30 nM or not?
not satisfied
